Source listed as ChEMBL document CHEMBL1132231.

Target: 5-hydroxytryptamine receptor 1A (Rattus norvegicus, UniProt P19327)
Sequence (P19327 whole entry): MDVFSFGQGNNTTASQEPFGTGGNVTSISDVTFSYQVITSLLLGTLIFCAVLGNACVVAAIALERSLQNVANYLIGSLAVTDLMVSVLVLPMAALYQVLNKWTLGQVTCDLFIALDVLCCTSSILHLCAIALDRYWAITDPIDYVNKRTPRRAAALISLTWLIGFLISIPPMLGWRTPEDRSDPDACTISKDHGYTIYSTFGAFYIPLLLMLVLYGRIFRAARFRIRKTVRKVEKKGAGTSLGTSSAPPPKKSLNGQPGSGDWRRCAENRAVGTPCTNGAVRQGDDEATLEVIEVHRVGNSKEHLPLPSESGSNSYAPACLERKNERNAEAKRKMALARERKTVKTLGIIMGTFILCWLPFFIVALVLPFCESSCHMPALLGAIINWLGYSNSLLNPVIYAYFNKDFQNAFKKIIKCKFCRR
Experiment: In vitro binding affinity towards 5-hydroxytryptamine 1A receptor by the displacement of [3H]8-OH-DPAT radioligand in rat hippocampal homogenates
Assay type: tissue-based, Hippocampus
pKi: −log10 of the molar value.
Returns one of Yes or No; Yes when pKi is >= 7.

{"structureNotation": "O=C1Cc2c(OCCN3Cc4ccccc4C3)ccc(F)c2N1", "targetOrSystem": "5-hydroxytryptamine receptor 1A (Rattus norvegicus, UniProt P19327)", "labelClass": "Yes"}
{"structureNotation": "O=C(c1c[nH]c2c(Cl)ccc(OCCNCc3ccccc3)c12)C(F)(F)F", "targetOrSystem": "5-hydroxytryptamine receptor 1A (Rattus norvegicus, UniProt P19327)", "labelClass": "Yes"}
{"structureNotation": "O=C1Cc2c(OCCNCc3ccc(-c4ccccc4)cc3)ccc(F)c2N1", "targetOrSystem": "5-hydroxytryptamine receptor 1A (Rattus norvegicus, UniProt P19327)", "labelClass": "No"}
{"structureNotation": "O=C1Cc2c(OCCNCc3cccs3)ccc(Cl)c2N1", "targetOrSystem": "5-hydroxytryptamine receptor 1A (Rattus norvegicus, UniProt P19327)", "labelClass": "Yes"}
{"structureNotation": "O=C1Cc2c(ccc3c2O[C@@H](CNCc2ccccc2)CC3)N1", "targetOrSystem": "5-hydroxytryptamine receptor 1A (Rattus norvegicus, UniProt P19327)", "labelClass": "Yes"}
{"structureNotation": "CN(CCCC(=O)c1ccc(F)cc1)CCOc1cccc2c1CC(=O)N2", "targetOrSystem": "5-hydroxytryptamine receptor 1A (Rattus norvegicus, UniProt P19327)", "labelClass": "No"}
{"structureNotation": "Fc1ccc(CNCCOc2ccc(Cl)c3[nH]cc(Cl)c23)cc1", "targetOrSystem": "5-hydroxytryptamine receptor 1A (Rattus norvegicus, UniProt P19327)", "labelClass": "No"}
{"structureNotation": "Oc1cccc(OCCNCc2ccccc2)c1", "targetOrSystem": "5-hydroxytryptamine receptor 1A (Rattus norvegicus, UniProt P19327)", "labelClass": "No"}
{"structureNotation": "Clc1ccc(OCCNCc2ccccc2)c2c(Cl)c[nH]c12", "targetOrSystem": "5-hydroxytryptamine receptor 1A (Rattus norvegicus, UniProt P19327)", "labelClass": "No"}
{"structureNotation": "O=C1Cc2c(OCCNCc3ccsc3)ccc(F)c2N1", "targetOrSystem": "5-hydroxytryptamine receptor 1A (Rattus norvegicus, UniProt P19327)", "labelClass": "Yes"}
{"structureNotation": "O=C1Cc2c(OCCNCc3ccccc3)ccc(F)c2N1", "targetOrSystem": "5-hydroxytryptamine receptor 1A (Rattus norvegicus, UniProt P19327)", "labelClass": "No"}
{"structureNotation": "CN(CCOc1ccc(Cl)c2c1CC(=O)N2)Cc1ccccc1", "targetOrSystem": "5-hydroxytryptamine receptor 1A (Rattus norvegicus, UniProt P19327)", "labelClass": "Yes"}
{"structureNotation": "O=C1Cc2c(cccc2OCCNCCCCc2ccccc2)N1", "targetOrSystem": "5-hydroxytryptamine receptor 1A (Rattus norvegicus, UniProt P19327)", "labelClass": "Yes"}
{"structureNotation": "NCCOc1cccc2c1CC(=O)N2", "targetOrSystem": "5-hydroxytryptamine receptor 1A (Rattus norvegicus, UniProt P19327)", "labelClass": "No"}
{"structureNotation": "O=C1Cc2c(OCCNCc3cccc(-c4ccccc4)c3)ccc(F)c2N1", "targetOrSystem": "5-hydroxytryptamine receptor 1A (Rattus norvegicus, UniProt P19327)", "labelClass": "No"}
{"structureNotation": "O=C1Cc2c(OCCN3CCc4ccccc4C3)ccc(Cl)c2N1", "targetOrSystem": "5-hydroxytryptamine receptor 1A (Rattus norvegicus, UniProt P19327)", "labelClass": "Yes"}
{"structureNotation": "O=C1Cc2c(OCCNCc3ccc(Cl)cc3)ccc(Cl)c2N1", "targetOrSystem": "5-hydroxytryptamine receptor 1A (Rattus norvegicus, UniProt P19327)", "labelClass": "No"}
{"structureNotation": "O=C1Cc2c(cccc2OCCNCc2ccccc2)N1", "targetOrSystem": "5-hydroxytryptamine receptor 1A (Rattus norvegicus, UniProt P19327)", "labelClass": "No"}
{"structureNotation": "O=C1Cc2c(OCCNCc3ccc(-c4ccccc4)cc3)ccc(Cl)c2N1", "targetOrSystem": "5-hydroxytryptamine receptor 1A (Rattus norvegicus, UniProt P19327)", "labelClass": "Yes"}
{"structureNotation": "Clc1ccc(OCCNCc2ccccc2)c2cc[nH]c12", "targetOrSystem": "5-hydroxytryptamine receptor 1A (Rattus norvegicus, UniProt P19327)", "labelClass": "No"}
{"structureNotation": "O=C1Cc2c(OCCN3CCc4ccccc4C3)ccc(F)c2N1", "targetOrSystem": "5-hydroxytryptamine receptor 1A (Rattus norvegicus, UniProt P19327)", "labelClass": "Yes"}
{"structureNotation": "O=C1Cc2c(OCCNCc3ccc(F)cc3)ccc(Cl)c2N1", "targetOrSystem": "5-hydroxytryptamine receptor 1A (Rattus norvegicus, UniProt P19327)", "labelClass": "No"}
{"structureNotation": "c1ccc(CNC[C@H]2CCc3ccc4[nH]ccc4c3O2)cc1", "targetOrSystem": "5-hydroxytryptamine receptor 1A (Rattus norvegicus, UniProt P19327)", "labelClass": "Yes"}
{"structureNotation": "CNCCOc1cccc2c1CC(=O)N2", "targetOrSystem": "5-hydroxytryptamine receptor 1A (Rattus norvegicus, UniProt P19327)", "labelClass": "No"}
{"structureNotation": "CN(CCOc1cccc2c1CC(=O)N2)Cc1ccccc1", "targetOrSystem": "5-hydroxytryptamine receptor 1A (Rattus norvegicus, UniProt P19327)", "labelClass": "No"}
